protocol: NCI Yeast Anticancer Drug Screen. Data for the sgs1 mgt1 strain (AID 161);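 further: 0% = growth of cultures given vehicle only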
assay conditions: S. cerevisiae sgs1 mgt1 strain, at 50.0 µM, active compounds read high
This is part of a sample that, as a whole, favours compounds with a hit. Of some 79,000 tested, about 15% had one in any assay.
reported endpoint: growth inhibition (%)

compound	unit abbreviation	measured result
O=C1C=CC(=O)c2c(O)cccc21	%	38
COc1cc(C(N)Cc2ccccc2)ccc1O (configuration not stated)	%	-1.25
CCCCCCCCCCC(=O)O.[Pb]	%	38.5
C1CCC(NC2CCCC2)C1	%	10.1
CNc1cc(Cl)c(C#N)c(Cl)c1	%	-0.7
CC[C@@]1(O)C(=O)OCc2c1c(Cl)c1n(c2=O)Cc2cc3ccccc3nc2-1	%	-5.85
CCCC(=O)O.CCCC(=O)O.CCCC(=O)O.CCCC(=O)O.[Rh].[Rh]	%	30.1
NC1CC2CCCCC2CC1c1ccccc1 (configuration not stated)	%	18.5
CC(NC1=NCCO1)c1ccco1 (configuration not stated)	%	13.2
[O-][n+]1ccccc1S	%	99.7
CN(C/C=C/CN(C)N=O)N=O	%	3.75
O=P(O)(O)c1ccccc1 (tested in a mixture with another compound)	%	-15.2
C1CCC(NCC2CCCO2)CC1 (configuration not stated)	%	79.5
CN1CCN(Cc2ccccc2)C(C#N)C1 (configuration not stated)	%	-0.35
O=NNc1ccc(Br)cn1	%	5.7
C/C(=C\c1ccccc1)[N+](=O)[O-]	%	92.4
COc1ccc(N=NC(=O)NC(CC(C)C)C(=O)NCC(=O)O)cc1 (configuration not stated)	%	10.4
O=C([O-])C(F)(F)C(F)(F)F.[C-]#[O+].[C-]#[O+].[C-]#[O+].[C-]#[O+].[C-]#[O+].[Re]	%	90.7
CC(C)CNP(=S)(NCC(C)C)c1ccccc1	%	6.7
COC12C(COC(N)=O)C3=C(C(=O)C(C)=C(N)C3=O)N1CC1C2N1C (configuration not stated)	%	55.7
CC(=O)O[C@H]1CC[C@@]2(C)C(=CC[C@@H]3[C@@H]2CC[C@]2(C)C(=O)[C@@H](CN4CC4)C[C@@H]32)C1	%	68.5
N#CS.N=C=S.N=C=S.[Cu+2].[NH2-].[NH2-].[NH2-].[NH2-].c1ccc2ncccc2c1	%	-24.2
COc1cc(C(CC(C)=O)c2cc3c(cc2OC(C)=O)OCO3)cc(OC)c1OC (configuration not stated)	%	-0.9
COc1ccc(Br)c(/C=C/[N+](=O)[O-])c1	%	99.7
C[C@]12C=CC(=O)NC[C@@H]1CC[C@@H]1[C@@H]2CC[C@]2(C)[C@@H](OC(=O)COc3ccc(N(CCCl)CCCl)cc3)CC[C@@H]12	%	8.1
[N-]=[N+]=Nc1nc2ccccc2c(N=[N+]=[N-])c1Cl	%	5.6
CCOC(=O)C(Cc1ccc(N(CCCl)CCCl)cc1)NC(=O)C(N)CO (configuration not stated)	%	4.75
CCC(Br)(CC)C(N)=O	%	-26.1
Nc1ccc(Br)cc1C(=O)c1ccccc1	%	99.2
CC[PH+](CC)CC.[Cl][Au]	%	91.3
CC(O)C[As](=O)(O)c1ccccc1Cl (configuration not stated)	%	-17.3
[N-]=[N+]=NC1=C(N=[N+]=[N-])c2cccc3cccc(c23)C1=O	%	55.3
C#CC(/C=C/Cl)(CC)OC(N)=O (configuration not stated)	%	-2
CC(C)CC(=O)[O-].CC(C)CC(=O)[O-].N.N.N.N.[Co+3].[O-][Cl+3]([O-])([O-])O.[O-][Cl+3]([O-])([O-])[O-]	%	-42.2
COc1ccc([As]=[As]c2ccc(OC)cc2)cc1 (configuration not stated)	%	99.2
CC(C)[S-].CC(C)[S-].[Pt+2].c1ccc([PH+](c2ccccc2)c2ccccc2)cc1.c1ccc([PH+](c2ccccc2)c2ccccc2)cc1	%	86.2
O=C(C1C(c2ccccc2)N1C1CCCCC1)C1C(c2ccccc2)N1C1CCCCC1 (configuration not stated)	%	10.6
ClCCN(CCCl)c1ccc(CCN2CCOCC2)cc1	%	19.5
O=C(/C=C/c1ccc([N+](=O)[O-])cc1Cl)Nc1cccc(S(=O)(=O)F)c1	%	-0.35
CN(C)CCO	%	4.55
OCC(S)CS.[Sb] (configuration not stated)	%	29.8
CCC(=O)c1ccc(C)cc1	%	-10.4
